# MIC annotations
Test system: Cutibacterium acnes
experimental-details: Antibacterial activity against drug-resistant Propionibacterium acnes P:413 after 48 hrs by broth microdilution method
Format: functional

Please review the entries below; each comes with its answer.
# compound, reported-value
rows = [
    ("CCC[C@@H]1C[C@@H](C(=O)N[C@@H]([C@H]2O[C@H](SC)[C@H](O)[C@@H](O)[C@H]2O)[C@H](C)Cl)N(C)C1 [CLINDAMYCIN]", "≤ 0.06 µg/mL"),
    ("CC[C@H]1OC(=O)[C@H](C)[C@@H](O[C@H]2C[C@@](C)(OC)[C@@H](O)[C@H](C)O2)[C@H](C)[C@@H](O[C@@H]2O[C@H](C)C[C@H](N(C)C)[C@H]2O)[C@](C)(O)C[C@@H](C)C(=O)[C@H](C)[C@@H](O)[C@]1(C)O [ERYTHROMYCIN]", "≤ 0.06 µg/mL"),
    ("CN(C)[C@@H]1C(O)=C(C(N)=O)C(=O)[C@@]2(O)C(O)=C3C(=O)c4c(O)cccc4[C@@](C)(O)[C@H]3C[C@@H]12 [TETRACYCLINE]", "16 µg/mL"),
]

We next turn to a different compound, shown below.
// recorded MIC for "CC[C@H]1OC(=O)[C@H](C)[C@@H](O[C@H]2C[C@@](C)(OC)[C@@H](O)[C@H](C)O2)[C@H](C)[C@@H](O[C@@H]2O[C@H](C)C[C@H](N(C)C)[C@H]2O)[C@](C)(OC)C[C@@H](C)C(=O)[C@H](C)[C@H]2[C@H](SCCn3cnc4cccnc43)C(=O)O[C@@]21C" : ≤ 0.06 µg/mL

###

# MIC annotations
Tested on: Cutibacterium acnes
experimental-details: Antibacterial activity against drug-resistant Propionibacterium acnes EG13NS after 48 hrs by broth microdilution method
Assay type: functional

# structure-string, system-under-test, MIC
measured = [
    ("CC[C@H]1OC(=O)[C@H](C)[C@@H](O[C@H]2C[C@@](C)(OC)[C@@H](O)[C@H](C)O2)[C@H](C)[C@@H](O[C@@H]2O[C@H](C)C[C@H](N(C)C)[C@H]2O)[C@](C)(O)C[C@@H](C)C(=O)[C@H](C)[C@@H](O)[C@]1(C)O", "Cutibacterium acnes", "≤ 0.06 µg/mL"),
    ("CC[C@H]1OC(=O)[C@H](C)[C@@H](O[C@H]2C[C@@](C)(OC)[C@@H](O)[C@H](C)O2)[C@H](C)[C@@H](O[C@@H]2O[C@H](C)C[C@H](N(C)C)[C@H]2O)[C@](C)(OC)C[C@@H](C)C(=O)[C@H](C)[C@H]2[C@H](SCCn3cnc4cccnc43)C(=O)O[C@@]21C", "Cutibacterium acnes", "≤ 0.06 µg/mL"),
    ("CCC[C@@H]1C[C@@H](C(=O)N[C@@H]([C@H]2O[C@H](SC)[C@H](O)[C@@H](O)[C@H]2O)[C@H](C)Cl)N(C)C1", "Cutibacterium acnes", "≤ 0.06 µg/mL"),
]

We next turn to a different compound, shown below.
// recorded MIC for "CN(C)[C@@H]1C(O)=C(C(N)=O)C(=O)[C@@]2(O)C(O)=C3C(=O)c4c(O)cccc4[C@@](C)(O)[C@H]3C[C@@H]12" : 1 µg/mL
